Entry source: PubChem BioAssay (NCI)

tested on: SK-MEL-2 melanoma; assay: NCI tumour cell line growth inhibition, 48 h
Would you mind telling me the reported TGI of each entry?
Express it in µM; write the number only.

Checklist item: TGI tested on SK-MEL-2 melanoma, entry `CN1CCN(c2ccc(NC3=C(Cl)C(=O)c4ncccc4C3=O)cc2C(F)(F)F)CC1` , value? 8.79

What TGI appears in the records for this molecule with SK-MEL-2 melanoma? COC(=O)/C=C\C1C(C(=O)OC)C2(C(=O)OC)CCC1(C(=O)OC)N2 (stereo not given) 30

Fill in the recorded TGI for this molecule, with SK-MEL-2 melanoma as test system: OC(CCN1CCN(CCOC(c2ccc(F)cc2)c2ccc(F)cc2)CC1)c1ccccc1 (stereo not given) 30.1
